meta.source: ChEMBL document CHEMBL1201862

Reported EC50 values for a set of compounds
- System: BJ
- protocolText: BJ-TERT fibroblast viability loss – cell-based, RAS-independent, luminescence, dose response (AID 1933)
- Format: functional
- conditionSummary: Homo sapiens
Calls of active or inactive are those of the source.
measuredQuantity: EC50

INSERT INTO assay_data (compound, testresult) VALUES
  ('O=C(c1ccc(Br)cc1)c1cc([N+](=O)[O-])ccc1N1CCCCC1', '0.697 µM (active)'),
  ('CCC(=O)Nc1cccc(C(=O)/C=C/c2ccccc2)c1', '9.74 µM (inconclusive)'),
  ('COc1ccc(S(=O)(=O)N2c3cc(Cl)ccc3Oc3nc4ccccc4nc32)cc1', '6.91 µM (inconclusive)'),
  ('CCCCC(CC)CN1C(=O)/C(=C/c2ccncc2)SC1=S (stereo not given)', '> 150 µM (not active)'),
  ('Cc1cc(N2CCN(Cc3cn(C)nc3-c3ccccc3F)CC2)cc(C)n1', '10.1 µM (active)');

====

- assayTarget: Hepatocyte nuclear factor 4-alpha (Homo sapiens);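 also: biochemical luminescence-based dose-response counterscreen measuring inhibition of HNF4 dimerization, run alongside a screen for blockers of ABHD5–perilipin-5 interaction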;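 also: split luciferase complementation of HNF4 fusion proteins in cell lysate measuring dimerization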
- Sequence (P41235 whole entry, the tested form may be a part): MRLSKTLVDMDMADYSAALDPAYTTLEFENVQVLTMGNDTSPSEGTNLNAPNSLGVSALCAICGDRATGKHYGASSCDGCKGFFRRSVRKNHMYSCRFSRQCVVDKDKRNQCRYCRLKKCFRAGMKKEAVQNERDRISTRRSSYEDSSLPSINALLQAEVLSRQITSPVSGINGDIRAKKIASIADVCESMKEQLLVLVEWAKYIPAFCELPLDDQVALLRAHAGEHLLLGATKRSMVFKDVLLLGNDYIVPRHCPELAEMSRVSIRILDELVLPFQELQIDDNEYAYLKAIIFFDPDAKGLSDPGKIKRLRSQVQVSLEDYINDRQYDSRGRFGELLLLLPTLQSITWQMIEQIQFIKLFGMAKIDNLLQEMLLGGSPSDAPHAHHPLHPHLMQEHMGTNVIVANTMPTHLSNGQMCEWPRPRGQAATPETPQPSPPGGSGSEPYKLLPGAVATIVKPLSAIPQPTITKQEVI
- Assay type: functional, cell-based
The source made the active and inactive calls.
Possible outcomes: active, inactive

INSERT INTO assay_data (compound, cat) VALUES
  ('O=C(NCc1ccccc1)C(c1ccc(-c2ccccc2)cc1)n1c(=O)c(-c2ccco2)nc2ccccc21 (centres undefined)', 'active'),
  ('C#CCN(C[C@@H]1[C@@H](OC(=O)NC2CCCC2)[C@@H](OC(=O)NC2CCCC2)Cn2c(=O)ccc(=O)n21)S(=O)(=O)c1ccc(C)cc1', 'inactive'),
  ('CC(=O)OCC1=C(C(=O)O)N2C(=O)C(NC(=O)CCn3nc(C(F)(F)F)c(Br)c3C3CC3)C2SC1 (centres undefined)', 'inactive'),
  ('CCC(=O)Nc1cccc(C(=O)/C=C/c2ccccc2)c1', 'active');

====

Reported AC50 values for a set of compounds
- assayTarget: Cytochrome P450 3A4 (Homo sapiens);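 also: confirmatory qHTS run detecting inhibitors and substrates of CYP3A4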
- Sequence (P08684 whole entry): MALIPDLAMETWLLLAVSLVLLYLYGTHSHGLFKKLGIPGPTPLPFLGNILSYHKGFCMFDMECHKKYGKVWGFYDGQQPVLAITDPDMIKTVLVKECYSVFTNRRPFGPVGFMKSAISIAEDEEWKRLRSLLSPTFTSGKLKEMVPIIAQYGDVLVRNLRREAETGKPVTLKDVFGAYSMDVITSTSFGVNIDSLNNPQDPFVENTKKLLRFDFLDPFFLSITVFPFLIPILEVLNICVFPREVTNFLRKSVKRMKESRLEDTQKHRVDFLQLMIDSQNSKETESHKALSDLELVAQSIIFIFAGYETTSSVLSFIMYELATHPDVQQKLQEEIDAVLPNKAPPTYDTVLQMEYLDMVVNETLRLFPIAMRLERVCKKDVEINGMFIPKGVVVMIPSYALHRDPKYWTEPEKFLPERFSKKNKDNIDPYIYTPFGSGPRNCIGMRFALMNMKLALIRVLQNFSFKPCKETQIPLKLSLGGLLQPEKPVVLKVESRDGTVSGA
- conditionSummary: Potency
measuredQuantity: AC50

INSERT INTO assay_data (compound, assaytarget, testresult) VALUES
  ('COC(=O)[C@@H]1C[C@@]2(O)[C@H](O)[C@H](O)[C@H](O)C[C@H]2N1Cc1cccnc1', 'Cytochrome P450 3A4 (Homo sapiens)', '31.6 µM (inconclusive)'),
  ('Cn1cc(C2=C(c3cn(CCCSC(=N)N)c4ccccc34)C(=O)NC2=O)c2ccccc21', 'Cytochrome P450 3A4 (Homo sapiens)', '6.31 µM (inconclusive)'),
  ('COc1cc2c(cc1OC)C1Cc3ccc(OC)c(OC)c3CN1CC2 (stereo unspecified)', 'Cytochrome P450 3A4 (Homo sapiens)', '31.6 µM (inconclusive)'),
  ('CCCn1c(C)nc2c(NCc3ccccc3)nc(C)nc21', 'Cytochrome P450 3A4 (Homo sapiens)', '15.8 µM (inconclusive)'),
  ('CC(=O)[C@@H]1[C@H]2[C@H](C(=O)[C@H]3OC[C@@H]2O3)[C@H]2C=Cc3ccccc3N21', 'Cytochrome P450 3A4 (Homo sapiens)', '25.1 µM (inconclusive)'),
  ('COc1ccc2c(c1)OCc1c-2oc2cc(OC)ccc12 [DEHYDROVARIABILIN]', 'Cytochrome P450 3A4 (Homo sapiens)', '39.8 µM (inconclusive)'),
  ('c1cc2c3c(c1)ccc1cccc(c13)C2', 'Cytochrome P450 3A4 (Homo sapiens)', '25.1 µM (inconclusive)'),
  ('CC(=O)N1CC=CC1(CC(C)C)C(=O)NCc1ccccn1 (stereo unspecified)', 'Cytochrome P450 3A4 (Homo sapiens)', '20 µM (inconclusive)'),
  ('COC(=O)CCC(C)C1CCC2C3C(O)C[C@@H]4CC(O)CC[C@@]4(C)C3CC(O)[C@]12C (stereo partly specified)', 'Cytochrome P450 3A4 (Homo sapiens)', '20 µM (inconclusive)'),
  ('COc1cc2c(cc1O)C[C@H]1c3c(cc(OC)c(O)c3-2)CCN1C [ISOBOLDINE]', 'Cytochrome P450 3A4 (Homo sapiens)', '20 µM (inconclusive)'),
  ('COC(=O)c1ccc(C23CC4(C2)[C@H](CN(CC2CCCCC2)[C@@H]4c2ccccc2)C3c2ccc(C(F)(F)F)cc2)cc1 (stereo partly specified)', 'Cytochrome P450 3A4 (Homo sapiens)', '15.8 µM (inconclusive)');

====

- assayTarget: Short transient receptor potential channel 4 (Mus musculus, UniProt Q9QUQ5)
- Sequence (Q9QUQ5 whole entry): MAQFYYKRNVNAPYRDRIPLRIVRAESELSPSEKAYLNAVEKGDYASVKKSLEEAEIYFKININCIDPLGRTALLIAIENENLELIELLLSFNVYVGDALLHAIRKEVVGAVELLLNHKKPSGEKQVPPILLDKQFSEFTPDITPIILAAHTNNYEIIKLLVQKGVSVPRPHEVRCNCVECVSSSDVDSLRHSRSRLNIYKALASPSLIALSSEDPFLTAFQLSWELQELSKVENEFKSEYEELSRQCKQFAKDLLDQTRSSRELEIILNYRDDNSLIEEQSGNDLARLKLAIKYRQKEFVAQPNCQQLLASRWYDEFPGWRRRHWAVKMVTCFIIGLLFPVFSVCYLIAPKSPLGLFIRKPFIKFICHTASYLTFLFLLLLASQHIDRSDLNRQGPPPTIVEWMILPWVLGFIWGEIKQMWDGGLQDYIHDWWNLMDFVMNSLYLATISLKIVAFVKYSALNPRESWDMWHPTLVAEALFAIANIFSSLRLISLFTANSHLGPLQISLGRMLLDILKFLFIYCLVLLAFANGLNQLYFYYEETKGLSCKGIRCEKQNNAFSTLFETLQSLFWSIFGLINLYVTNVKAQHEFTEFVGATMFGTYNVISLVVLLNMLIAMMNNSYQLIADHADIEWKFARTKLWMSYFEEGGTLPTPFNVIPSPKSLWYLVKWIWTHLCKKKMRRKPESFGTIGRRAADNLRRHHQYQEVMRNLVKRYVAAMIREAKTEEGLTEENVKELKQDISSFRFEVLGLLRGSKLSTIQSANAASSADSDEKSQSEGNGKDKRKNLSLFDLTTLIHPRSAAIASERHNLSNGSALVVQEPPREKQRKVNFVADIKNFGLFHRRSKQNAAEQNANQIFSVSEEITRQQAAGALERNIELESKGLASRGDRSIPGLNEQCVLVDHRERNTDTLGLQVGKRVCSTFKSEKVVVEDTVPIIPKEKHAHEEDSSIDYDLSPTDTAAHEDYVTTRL
- protocolText: block of DAMGO-driven TRPC4 calcium entry – cell-based, HEK293 TRPC4/mu-opioid, Fluo-4 calcium, dose response (AID 434942);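 also: potency of inhibitors blocking the TRPC4 calcium response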
- Assay type: functional
Active and inactive are the calls of the source.
measuredQuantity: EC50

INSERT INTO measurements (compound, measuredquantity, testresult) VALUES
  ('CC(C)CN(CC(C)C)c1nc(N)c(C#N)c(CC#N)c1C#N', 'EC50', '5.96 µM (active)'),
  ('CCCc1noc2c1/C(=N\O)CC(CC(C)SCC)C2 (stereo not given)', 'EC50', '1.5 µM (active)'),
  ('COc1ccc(Nc2nc(N)c3ccccc3n2)c(OC)c1', 'EC50', '4.22 µM (active)'),
  ('CCn1cc(CN2CCC(n3nccc3NC(=O)CCCc3ccccc3)CC2)cn1', 'EC50', '1.19 µM (active)'),
  ('COc1ccc(Nc2c3c(nc4ccccc24)CCC3)cc1', 'EC50', '4.22 µM (active)');

====

- assayTarget: Carboxy-terminal domain RNA polymerase II polypeptide A small phosphatase 1 (Homo sapiens, UniProt Q9GZU7)
- Sequence (Q9GZU7 whole entry): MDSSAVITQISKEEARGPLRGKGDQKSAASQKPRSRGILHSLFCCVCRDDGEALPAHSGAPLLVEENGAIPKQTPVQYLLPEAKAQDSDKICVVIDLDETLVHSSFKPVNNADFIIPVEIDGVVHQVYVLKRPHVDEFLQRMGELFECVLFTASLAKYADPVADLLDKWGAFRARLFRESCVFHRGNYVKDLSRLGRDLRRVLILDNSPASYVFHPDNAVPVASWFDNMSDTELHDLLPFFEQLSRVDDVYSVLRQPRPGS
- protocolText: CTDSP1 inhibitors, concentration-response, biochemical, absorbance readout, ultra-high-throughput screen actives (AID 540297)
- Assay type: functional
Active and inactive are the calls of the source.
measuredQuantity: IC50

INSERT INTO measurements (cpdsmiles, measuredquantity, testresult) VALUES
  ('O=C(CCS(=O)(=O)c1ccc(Br)cc1)NCc1cccs1', 'IC50', '48 µM (active)'),
  ('Cc1c(OC(=O)c2ccc([N+](=O)[O-])cc2)c2c(c[n+]1C)COC(C)(C)OC2', 'IC50', '4.14 µM (active)'),
  ('CSCC[C@H](NS(=O)(=O)c1ccc(C(C)=O)cc1)c1nnc2ccccn12', 'IC50', '5.88 µM (active)'),
  ('CCOC(=O)CN1C(=O)S/C(=C\c2ccc(-c3ccc(C(=O)O)c(Cl)c3)o2)C1=O', 'IC50', '4.84 µM (active)'),
  ('Cc1cccc(NC(=O)CN2C(=O)S/C(=C\c3cccn3-c3cccc(C(=O)O)c3)C2=O)c1', 'IC50', '6.83 µM (active)');

====

- protocolText: blockers of HIV-1 envelope-mediated cell-cell fusion – cherry-pick, dose response (AID 652057)
- Format: functional, cell-based
Activity calls are given as the source filed them.
Reported AC50 values for a set of compounds
measuredQuantity: AC50

INSERT INTO measurements (compound, measuredquantity, testresult) VALUES
  ('Cc1ccc(S(=O)(=O)N(C)C[C@@H]2OCc3ccccc3-c3c(n(C)c4ccccc34)C(=O)N([C@H](C)CO)C[C@@H]2C)cc1', 'AC50', '1.87 µM (active)'),
  ('C[C@H](CO)N1C[C@H](C)[C@H](CN(C)S(=O)(=O)c2cccs2)Oc2ccc(NC(=O)Nc3cccc4ccccc34)cc2CC1=O', 'AC50', '< 0.26 µM (active)'),
  ('CC(C)(C)c1ccc(C(=O)Nc2sc3c(c2C(=O)O)CCC3)cc1', 'AC50', '2.21 µM (active)'),
  ('CCOC(=O)[C@H]1[C@H]2COc3ccccc3[C@@H]2N2C(=O)c3c(C)cc(C)cc3NC(=O)[C@@]12C', 'AC50', '0.712 µM (active)'),
  ('CCC(C)(C)NC(=O)C(c1ccccc1F)N(Cc1ccco1)C(=O)c1csnn1 (stereo not given)', 'AC50', '5 µM (active)');

====

- assayTarget: High affinity choline transporter 1 (Homo sapiens)
- Sequence (Q9GZV3 whole entry): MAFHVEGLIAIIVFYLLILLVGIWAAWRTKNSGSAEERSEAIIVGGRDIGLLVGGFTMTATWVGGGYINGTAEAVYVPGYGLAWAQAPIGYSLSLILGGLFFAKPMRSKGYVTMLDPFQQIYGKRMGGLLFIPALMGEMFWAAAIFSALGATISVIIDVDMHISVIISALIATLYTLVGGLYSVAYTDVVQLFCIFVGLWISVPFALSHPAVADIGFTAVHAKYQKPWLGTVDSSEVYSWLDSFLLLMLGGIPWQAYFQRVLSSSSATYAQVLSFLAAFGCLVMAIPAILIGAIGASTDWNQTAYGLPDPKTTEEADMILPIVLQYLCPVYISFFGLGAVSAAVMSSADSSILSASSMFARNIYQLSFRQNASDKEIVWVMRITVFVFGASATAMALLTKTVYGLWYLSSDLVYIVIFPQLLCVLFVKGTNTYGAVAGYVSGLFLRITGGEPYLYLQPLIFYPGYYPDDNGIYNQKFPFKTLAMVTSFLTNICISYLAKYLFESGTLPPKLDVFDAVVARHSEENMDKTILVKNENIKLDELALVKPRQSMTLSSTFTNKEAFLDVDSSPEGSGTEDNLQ
- protocolText: human choline transporter blockers, potency – cell-based, 10-point CRC, membrane potential dye, dose response (AID 588401);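 also: membrane potential dye fluorescence of choline-evoked depolarization via CHT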
- Format: functional
The source made the active and inactive calls.
Reported IC50 values for a set of compounds
measuredQuantity: IC50

INSERT INTO assay_data (compound, testresult) VALUES
  ('Cn1c(=O)c(C#N)c(-c2ccc(F)cc2)c2cc(C(=O)c3cc(Cl)cc(Cl)c3O)cnc21', '7.08 µM (active)'),
  ('COC(=O)Cn1c(CN2CCN(c3ccc(F)cc3)CC2)nc2c1c(=O)n(C)c(=O)n2C', '1.15 µM (active)'),
  ('O=C(Nc1ccccc1C(=O)NCCCn1ccnc1)c1ccccc1', '1.5 µM (active)'),
  ('CCc1nnc(NS(=O)(=O)c2ccc(NC(=O)c3ccc(Br)cc3)cc2)s1', '10 µM (active)'),
  ('Cc1nn2c(NCCOCCO)c3c(nc2c1-c1ccccc1)CCCC3', '11.2 µM (active)'),
  ('Cc1nccn1CC1CCc2c(c3ccccc3n2C)C1=O (stereo not drawn)', '1.35 µM (active)'),
  ('Nc1ncc(Br)cc1S(=O)(=O)Nc1cc(C(F)(F)F)cc(C(F)(F)F)c1', '4.01 µM (active)'),
  ('Cc1sc[n+](CC(=O)c2ccc(Br)cc2)c1C', '3.76 µM (active)');
